# System: adult mongrel dogs
# procedure_summary: acute in vivo cardiotonic activity in anesthetized dogs
# Design: species or system dog (adult mongrel)
# run_parameters: Canis lupus familiaris; cardiotonic; dose 0.875 mg/kg intravenous; relative to controls; read-out: CF (cardiac force)
// map change in vivo at 0.875 mg/kg onto a label; ranges bottom bin = under 50%, middle bin = from 50% up to 90%, top bin = 90% and over

Worked set:
>>> discrete_label("COC(=O)CCc1c(O)ncc2cc(OC)c(OC)cc12 [Compound Q]")
"middle bin"
>>> discrete_label("COC(=O)CCc1c(O)nc(C)c2cc(OC)c(OC)cc12 [Compound B]")
"top bin"
>>> discrete_label("COC(=O)Cc1c(O)nc(C)c2cc(OC)c(OC)cc12 [W]")
"bottom bin"
>>> discrete_label("COc1cc2c(C)nc(O)c(CCC(=O)OC3CCCC3)c2cc1OC [T]")
"bottom bin"
>>> discrete_label("CCOC(=O)CCc1c(O)nc(C)c2cc(OC)c(OC)cc12 [S]")
"middle bin"
>>> discrete_label("COc1cc2cc(O)nc(C)c2c(OC)c1OC [H]")
"middle bin"
>>> discrete_label("CCc1nc(O)c(CCC(=O)OC)c2cc(OC)c(OC)cc12 [K]")
"bottom bin"
>>> discrete_label("Br.COc1cc2c(C)nc(O)c(Br)c2cc1OC.O [Compound AC, Hydrobromide Monohydrate]")
"top bin"

Prompt line: For COC(=O)CCc1c(O)nc(C)c2cc3c(cc12)OCO3 [L] , which change in vivo at 0.875 mg/kg bin applies?
Response line: top bin

----------
Below is a list of entries, each paired with its recorded change in vivo at 13.9 mg/kg value.
# Tested on: adult mongrel dogs
# procedure_summary: renal vasodilating activity in anesthetized dogs
# Type: in vivo, dog (adult mongrel)
# run_parameters: Canis lupus familiaris; renal vasodilator; dose 13.9 mg/kg intravenous; relative to controls; read-out: RBF (renal blood flow)
Respond numerically; units are % and should not be typed.

Worked cases, change in vivo at 13.9 mg/kg given:
>>> observed_result("COC(=O)CCc1c(O)ncc2cc(OC)c(OC)cc12")
42
>>> observed_result("COc1ccc2cc(O)ncc2c1OC")
21
>>> observed_result("COC(=O)C(C)Cc1c(O)nc(C)c2cc(OC)c(OC)cc12 (stereo not shown)")
15
>>> observed_result("COc1cc2c(C)nc(O)c(CCC(=O)O)c2cc1OC")
7

Turning now to a further record.
Entry "COC(=O)Cc1c(O)nc(C)c2cc(OC)c(OC)cc12" , change in vivo at 13.9 mg/kg reported as 64

----------
# Test system: adult mongrel dogs
# procedure_summary: acute in vivo cardiotonic activity in anesthetized dogs
# Set-up: species or system dog (adult mongrel)
# run_parameters: Canis lupus familiaris; cardiotonic; dose 1.875 mg/kg intravenous; relative to controls; read-out: HR (heart rate)
# Experimental: The acute in vivo cardiotonic activity of compounds prepared according to the present invention was determined according to a modification of the procedure described by Alousi et al., Circ. Res., 45, 666 (1979). In particular, adult mongrel dogs were anesthetized with sodium pentobarbital and were artificially respired. Arterial pressure was monitored via a femoral artery, and the pulse pressure was used to trigger a cardiotachometer for heart rate. […] Lead II EKG was also recorded. […]
reported_endpoint: change in vivo at 1.875 mg/kg (%)
Respond numerically; units are % and should not be typed.

Worked cases, change in vivo at 1.875 mg/kg given:
>>> observed_result("COC(=O)CCc1c(O)ncc2cc3c(cc12)OCO3")
6
>>> observed_result("COc1cc2c(C)nc(O)c(C3CCCC3)c2cc1OC")
5
>>> observed_result("COc1cc2c(C)nc(O)c(CCC(=O)O)c2cc1OC")
5

Entry "CCCc1nc(O)c(CCC(=O)OC)c2cc(OC)c(OC)cc12" , change in vivo at 1.875 mg/kg reported as 2

----------
# Test system: adult mongrel dogs
# procedure_summary: renal vasodilating activity in anesthetized dogs
# Type: in vivo, dog (adult mongrel)
# run_parameters: Canis lupus familiaris; renal vasodilator; dose 13.9 mg/kg intravenous; relative to controls; read-out: RVR (renal vascular resistance)
reported_endpoint: change in vivo at up to 13.9 mg/kg
Give me the value, and tack the unit on after it.

Worked cases, change in vivo at up to 13.9 mg/kg given:
>>> observed_result("Cc1nc(O)cc2ccc(O)c(O)c12")
"-29%"
>>> observed_result("COC(=O)Cc1c(O)nc(C)c2cc(OC)c(OC)cc12")
"-62%"
>>> observed_result("CCCc1c(O)nc(C)c2cc(OC)c(OC)cc12")
"-13%"

Entry "COC(=O)CCc1c(O)ncc2cc(OC)c(OC)cc12" , change in vivo at up to 13.9 mg/kg reported as -23%

Entry "CCc1nc(O)c(CCC(=O)OC)c2cc(OC)c(OC)cc12" , change in vivo at up to 13.9 mg/kg reported as -28%

Entry "COC(=O)CCc1c(O)nc(C)c2c(OC)c(OC)c(OC)cc12" , change in vivo at up to 13.9 mg/kg reported as -23%

Entry "COc1ccc2cc(O)ncc2c1OC" , change in vivo at up to 13.9 mg/kg reported as -27%

Entry COC(=O)C(C)Cc1c(O)nc(C)c2cc(OC)c(OC)cc12 (stereo not shown) , change in vivo at up to 13.9 mg/kg reported as -18%

----------
# System: adult mongrel dogs
# procedure_summary: acute in vivo cardiotonic activity in anesthetized dogs
# Set-up: species or system dog (adult mongrel)
# run_parameters: Canis lupus familiaris; cardiotonic; dose 0.875 mg/kg intravenous; relative to controls; read-out: CF (cardiac force)
reported_endpoint: change in vivo at 0.875 mg/kg (%)
Respond numerically; units are % and should not be typed.

Worked cases, change in vivo at 0.875 mg/kg given:
>>> observed_result("COc1ccc2cc(O)nc(C)c2c1OC")
62
>>> observed_result("CNC(=O)CCc1c(O)nc(C)c2cc(OC)c(OC)cc12")
40

Turning now to a further record.
The reported change in vivo at 0.875 mg/kg value, adult mongrel dogs, for "COC(=O)CCc1c(O)nc(C)c2c(OC)c(OC)c(OC)cc12" reads 22

----------
# measurement_target: Phosphodiesterase fraction III (Canis lupus familiaris)
# Construct: isolated as an isozyme from the crude canine heart homogenate
# Sequence (A0A8I3NYE0 1-1135): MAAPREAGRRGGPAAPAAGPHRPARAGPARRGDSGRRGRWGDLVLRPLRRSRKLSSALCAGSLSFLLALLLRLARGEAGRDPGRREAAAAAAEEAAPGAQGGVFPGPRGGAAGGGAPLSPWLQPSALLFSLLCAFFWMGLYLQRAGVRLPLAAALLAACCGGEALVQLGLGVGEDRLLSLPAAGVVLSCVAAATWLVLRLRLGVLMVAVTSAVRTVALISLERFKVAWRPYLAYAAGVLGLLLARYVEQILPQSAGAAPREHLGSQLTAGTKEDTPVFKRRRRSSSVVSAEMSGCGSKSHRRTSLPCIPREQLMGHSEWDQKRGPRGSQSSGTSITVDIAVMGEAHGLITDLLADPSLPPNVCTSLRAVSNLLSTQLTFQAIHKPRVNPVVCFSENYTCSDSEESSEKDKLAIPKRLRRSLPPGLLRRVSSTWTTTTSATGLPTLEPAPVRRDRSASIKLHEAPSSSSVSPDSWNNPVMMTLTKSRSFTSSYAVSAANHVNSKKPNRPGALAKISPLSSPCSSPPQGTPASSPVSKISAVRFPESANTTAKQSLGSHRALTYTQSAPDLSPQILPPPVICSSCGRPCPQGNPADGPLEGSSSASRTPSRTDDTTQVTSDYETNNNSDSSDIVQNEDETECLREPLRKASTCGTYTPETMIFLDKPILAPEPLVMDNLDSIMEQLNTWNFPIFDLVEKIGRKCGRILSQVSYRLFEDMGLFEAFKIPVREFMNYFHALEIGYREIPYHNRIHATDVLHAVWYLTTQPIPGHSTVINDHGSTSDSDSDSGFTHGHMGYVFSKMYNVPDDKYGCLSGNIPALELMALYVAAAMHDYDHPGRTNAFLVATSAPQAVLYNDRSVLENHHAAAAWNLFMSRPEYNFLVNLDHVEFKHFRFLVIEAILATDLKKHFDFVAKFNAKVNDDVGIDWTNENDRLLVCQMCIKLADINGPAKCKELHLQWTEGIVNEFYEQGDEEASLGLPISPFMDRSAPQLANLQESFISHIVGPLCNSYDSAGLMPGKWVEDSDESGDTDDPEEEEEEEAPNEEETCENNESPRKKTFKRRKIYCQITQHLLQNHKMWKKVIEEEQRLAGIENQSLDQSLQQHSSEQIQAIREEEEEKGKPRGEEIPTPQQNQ
# procedure_summary: inhibition of phosphodiesterase fraction III activity
# run_parameters: cyclic AMP 0.10-1.0 uM, pH 7.4, canine heart enzyme
// map IC50 onto a label; ranges low band = under 10 µM, middle band = from 10 µM up to 60 µM, high band = 60 µM and over

Worked set:
>>> discrete_label("COc1cc(OC)c2c(C)nc(O)cc2c1")
"high band"
>>> discrete_label("COc1cc2c(CCl)nc(O)c(Cl)c2cc1OC")
"middle band"
>>> discrete_label("COc1ccc2c(C)nc(O)cc2c1")
"high band"
>>> discrete_label("COC(=O)CCc1c(O)nc(C)c2cc(OC)c(OC)cc12")
"middle band"

Prompt line: For "CCCc1c(O)nc(C)c2cc(OC)c(OC)cc12" , which IC50 bin applies?
Response line: low band

Prompt line: For "COc1cc2c(C)nc(O)c(C3CCCC3)c2cc1OC" , which IC50 bin applies?
Response line: high band

Prompt line: For "COc1cc2c(C)nc(O)c(C(C)C)c2cc1OC" , which IC50 bin applies?
Response line: middle band

Prompt line: For "CCc1c(O)nc(C)c2cc(OC)c(OC)cc12" , which IC50 bin applies?
Response line: low band

Prompt line: For "COc1cc2c(C)nc(O)c(Cl)c2cc1OC" , which IC50 bin applies?
Response line: high band

Prompt line: For "CCCCOc1cc2c(C)nc(O)cc2cc1OC" , which IC50 bin applies?
Response line: middle band

Prompt line: For "COc1cc2c(C)nc(O)c(C)c2cc1OC" , which IC50 bin applies?
Response line: low band

----------
# System: adult mongrel dogs
# procedure_summary: acute in vivo cardiotonic activity in anesthetized dogs
# Design: species or system dog (adult mongrel)
# run_parameters: Canis lupus familiaris; cardiotonic; dose 0.875 mg/kg intravenous; relative to controls; read-out: MABP (mean arterial blood pressure)
reported_endpoint: change in vivo at 0.875 mg/kg (%)
Respond numerically; units are % and should not be typed.

Worked cases, change in vivo at 0.875 mg/kg given:
>>> observed_result("CCc1nc(O)c(CCC(=O)OC)c2cc(OC)c(OC)cc12 [K]")
-3
>>> observed_result("CNC(=O)CCc1c(O)nc(C)c2cc(OC)c(OC)cc12 [X]")
-5
>>> observed_result("COc1cc2c(C)nc(O)c(CCC(=O)OC3CCCC3)c2cc1OC [T]")
-3
>>> observed_result("COc1ccc2cc(O)nc(C)c2c1OC [Compound C]")
-6
>>> observed_result("CCOC(=O)CCc1c(O)nc(C)c2cc(OC)c(OC)cc12 [S]")
-4

The reported change in vivo at 0.875 mg/kg value, adult mongrel dogs, for COC(=O)CCc1c(O)nc(C)c2cc(OC)c(OC)cc12 [Compound B] reads -12

The reported change in vivo at 0.875 mg/kg value, adult mongrel dogs, for COc1cc2c(C)nc(O)c(Cl)c2cc1OC [Compound AE] reads 1

The reported change in vivo at 0.875 mg/kg value, adult mongrel dogs, for COC(=O)CCc1c(O)nc(C)c2cc3c(cc12)OCO3 [L] reads -21
